Measured pIC50 by item
system: 855422-203-R-J1-PDC complex spheroids, viability; test: Anticancer human tumor 855422-203-R-J1-PDC patient-derived bladder carcinoma cell line growth inhibition [CLK]; conditions: curve of first compound; second compound 0.316 µM;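 further: spheroids exposed to drugs for seven days before readout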
pIC50: −log10 of the molar value.

C=CC(=O)Nc1cc(Nc2nccc(-c3cn(C)c4ccccc34)n2)c(OC)cc1N(C)CCN(C)C + CNC(=O)c1ccc(Nc2nc(OC3CCCC3)c3c(-c4ccc5nc(C)oc5c4)c[nH]c3n2)c(OC)c1; > 9.02

Measured pIC50 of Cn1ncnc1[C@H]1c2n[nH]c(=O)c3cc(F)cc(c23)N[C@@H]1c1ccc(F)cc1 + CN1CCN(c2cc(C(=O)Nc3cc4cc(-c5cnn(C)c5)ccc4cn3)ccn2)CC1 : > 9.50

So, O=c1[nH]cc(F)c(=O)[nH]1 + CN1CCN(c2cc(C(=O)Nc3cc4cc(-c5cnn(C)c5)ccc4cn3)ccn2)CC1 ? Its pIC50 was > 7.50

Looking up C#Cc1c(F)ccc2cc(O)cc(-c3ncc4c(N5CC6CCC(C5)N6)nc(OCC56CCCN5CC(F)C6)nc4c3F)c12 (stereo not given) + CN1CCN(c2cc(C(=O)Nc3cc4cc(-c5cnn(C)c5)ccc4cn3)ccn2)CC1 , I found its pIC50 recorded as > 7.50

The molecule COC1C=CCC(C)C(C)S(=O)(=O)NC(=O)c2ccc3c(c2)N(CC2CCC21)CC1(CCCc2cc(Cl)ccc21)CO3 (stereo not given) + CN1CCN(c2cc(C(=O)Nc3cc4cc(-c5cnn(C)c5)ccc4cn3)ccn2)CC1 showed pIC50 equal to > 7.50
